Test system: NCI-H460 lung
protocol.summary: NCI tumour cell line growth inhibition, 48 h
TGI: recorded values

compound: Oc1ccc(/C=N\Nc2ccccn2)c(O)c1
TGI: 3.99 µM
--
compound: CCN(CC)c1ccc(/C=C\c2cc(C)c3cc(C)ccc3n2)cc1
TGI: 24.5 µM
--
compound: Cc1c(Cl)c(=O)oc2cc(OCC(O)COC(C)C)ccc12 (configuration not stated)
TGI: > 100 µM
--
compound: Cc1ccc(C(=O)NN=C(/N=N/c2cccc(C)c2)c2ccc(N(C)C)cc2)cc1
TGI: > 100 µM
--
compound: O=C(/C=C/c1ccc(OCC(=O)N2CCN(c3ccccc3)CC2)cc1)c1ccc(Cl)cc1
TGI: > 100 µM
--
compound: C=C1CC(Cn2cc(Br)c(=O)[nH]c2=O)(c2ccc(Br)cc2)OC1=O (configuration not stated)
TGI: 35.6 µM
--
compound: O=C(O)CNc1c2ccccc2nc2ccccc12
TGI: > 100 µM
--
compound: CC(=O)CCCCCCCCCCCC[C@@H]1CC[C@H](C)[C@H](O)N1
TGI: > 100 µM
--
compound: CCN(Cc1cccc(OC)c1)c1ccc(CO)c(Cl)c1
TGI: 14.1 µM
--
compound: COc1ccc(C2C3=CONC3CC3CCCCC32)cc1 (configuration not stated)
TGI: > 100 µM
--
compound: Cc1cccc(C(C)(C)C)c1NC(=O)C(=O)C(C(=O)/C=C\c1ccccc1)C1OC(=O)c2ccccc21 (configuration not stated)
TGI: > 100 µM
--
compound: Cc1cn(C2CC(SCCO)C(CO)O2)c(=O)[nH]c1=O (configuration not stated)
TGI: > 100 µM
--
compound: N#CC(=S)Nc1cccc(Cl)c1
TGI: > 100 µM
--
compound: C=C1C(=O)O[C@H]2[C@H]1CC/C(COC(=O)/C=C/C(=O)OC/C1=C/CC[C@@]3(C)O[C@H]3[C@H]3OC(=O)C(=C)[C@@H]3CC1)=C\CC[C@@]1(C)O[C@@H]21
TGI: > 100 µM
--
compound: CN(c1ccc(Cl)cc1)S(=O)(=O)c1ccccc1
TGI: > 100 µM
--
compound: NC(=O)CC[C@H]1C(=O)N=C(N)N1C(=O)OCc1ccccc1
TGI: > 100 µM
--
compound: Cc1sc2nc3n(sc4nc5sc(C)c(C)c5c(=O)n43)c(=O)c2c1C
TGI: > 100 µM
